I'd appreciate it if you could supply apparent KD of K4 kissing-loop reporter values for the items below.
# Test system: K4 kissing-loop RNA reporter;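 also: bound reporter read as fluorescence of individual clusters on recovered sequencing chips by microscopy, with normalized cluster intensities fitted with a binding model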
# method-summary: apparent KD of K4 kissing-loop reporter; higher = weaker reporter binding
# particulars: Eterna round: R107; input ligand: FMN 200 uM
Numbers only, in nM.

Solved entries:
- residue-sequence: "GACAUCUAUCGCCGAUAGUGUUUAUCUUGGGAGGAUAUGUCAGCGGACAGAAGGCCCAGUGAUGUUGGGUAGAUGACCGUUGCUU [Edbiza]"
  apparent KD of K4 kissing-loop reporter (nM): 242
- residue-sequence: "GCGCGUCAUGGCGGCGGUGACUACGCCGAUACCAGCCGGGAAACCGGCCCUUGGCAGCGGCGCGCCGGAGUGAUGUUCCGACAGA [#2 Exclusion - Theophylline A Attempt #4 (HarryS)]"
  apparent KD of K4 kissing-loop reporter (nM): 226

Next sequence, please.
Prompt line: What measured apparent KD of K4 kissing-loop reporter goes with UGUACCGAGUCAGGAUAUGGCGUCGAAAGACGAAUCCUAGUGAUGUUAGGGAUCUGCGAAAGCAGUCCAGAAGGGACUUGGUACU [FmnBS 26 #SwitchBubble #StaticStem #DoubleMagnetSystem] ?
Response line: 275
